System: tobacco mosaic virus (TMV)
Test: Anti-TMV protective activity (protection mode), live friction inoculation on tobacco seedlings
Assay type: in vivo
Details: Tobacco mosaic virus, read-out: Anti-TMV activity, Protection effect (inhibition)
I would appreciate it if you labelled entries class 1 when inhibition at 100 µg/mL is 40% or higher, otherwise class 0.

>>> category_label("COc1ccc(C(=O)N/C(=C\\c2ccccc2)C(=O)N2CCC(O)(c3ccc(Br)cc3)CC2)cc1")
"class 1"
>>> category_label("CC(C)(C)OC(=O)N1CCC(C(=O)N/C(=C\\c2ccccc2)C(=O)N2CCC(O)(c3ccc(Br)cc3)CC2)CC1")
"class 1"
>>> category_label("O=C(N/C(=C\\c1ccccc1)C(=O)N1CCC(O)(c2ccc(Br)cc2)CC1)c1ccc([N+](=O)[O-])cc1")
"class 0"
>>> category_label("O=C(N/C(=C\\c1ccccc1)C(=O)N1CCC(O)(c2ccc(Br)cc2)CC1)c1ccco1")
"class 0"
>>> category_label("O=C(N/C(=C\\c1ccc([N+](=O)[O-])cc1)C(=O)N1CCC(O)(c2ccc(Br)cc2)CC1)c1ccccc1")
"class 1"
>>> category_label("CC(C)(C)OC(=O)N1CCC(c2nc(/C=C3\\N=C(c4ccccc4)OC3=O)cs2)CC1")
"class 0"

Next item in the queue.
Prompt line: Entry O=C(N/C(=C\c1ccccc1)C(=O)N1CCC(O)(c2ccc(Br)cc2)CC1)c1ccccc1 [Compound 76, reference compound] : is its inhibition at 100 µg/mL no less than 40%?
Response line: class 0

The values you see were collected from patent US11166460B2.
